Here, each record is paired with measured MIC data.
# Test system: Candida auris TDG2506
# assay comment: microbe, parasite or virus in culture
# Format: cell-based
# stated conditions: Candidozyma auris, TDG2506, read-out: MIC C. auris 2506

query: Return MIC for the following compound: OC(CN1CCC2(CCC(Nc3ccc(Cc4ccccc4)cc3)CC2)C1)(Cn1cncn1)c1ccc(F)cc1F (stereo not shown)
result: ≤ 0.125 µg/mL

query: Identify the reported MIC for the following entry. OC(Cn1cncn1)(Cn1cncn1)c1ccc(F)cc1F [Fluconazole, fluconazole, reference compound]
result: > 128 µg/mL

query: Report measured MIC; entry is OC(CN1CCC(Nc2ccc(OCc3ccccc3)cc2)CC1)(Cn1cncn1)c1ccc(F)cc1F (stereo not shown)
result: ≤ 0.003 µg/mL

query: Using known records, supply MIC for OC(CN1CCC(N2CCC(Nc3ccc(Cc4ccccc4)cc3)CC2)CC1)(Cn1cncn1)c1ccc(F)cc1F (stereo not shown)
result: ≤ 0.125 µg/mL

Origin of measurements: patent US20240246920A1
